Assay: total protein half-life in vivo (active degradation + dilution); higher = more stable protein
Conditions: wild type E. coli NCM3722; growth: P-lim chemostat; doubling time 6 h
Observation Type: total protein half-life in vivo (h)
// return numeric value only (unit: h, not printed)

Recorded total protein half-life in vivo, per entry:
Chain Sequence | Observation Type | Display Unit | Test Value
MQTEHVILLNAQGVPTGTLEKYAAHTADTRLHLAFSSWLFNAKGQLLVTRRALSKKAWPGVWTNSVCGHPQLGESNEDAVIRRCRYELGVEITPPESIYPDFRYRATDPSGIVENEVCPVFAARTTSALQINDDEVMDYQWCDLADVLHGIDATPWAFSPWMVMQATNREARKRLSAFTQLK | total protein half-life in vivo | h | 5.61
MLSNDILRSVRYILKANNNDLVRILALGNVEATAEQIAVWLRKEDEEGFQRCPDIVLSSFLNGLIYEKRGKDESAPALEPERRINNNIVLKKLRIAFSLKTDDILAILTEQQFRVSMPEITAMMRAPDHKNFRECGDQFLRYFLRGLAARQHVKKG | total protein half-life in vivo | h | 4.99

Record request: total protein half-life in vivo value, item MPIRVPDELPAVNFLREENVFVMTTSRASGQEIRPLKVLILNLMPKKIETENQFLRLLSNSPLQVDIQLLRIDSRESRNTPAEHLNNFYCNFEDIQDQNFDGLIVTGAPLGLVEFNDVAYWPQIKQVLEWSKDHVTSTLFVCWAVQAALNILYGIPKQTRTEKLSGVYEHHILHPHALLTRGFDDSFLAPHSRYADFPAALIRDYTDLEILAETEEGDAYLFASKDKRIAFVTGHPEYDAQTLAQEFFRDVEAGLDPDVPYNYFPHNDPQNTPRASWRSHGNLLFTNWLNYYVYQITPYDLRHMNPTLD
3.94
